Please provide measured melting point for the entries that follow.
Give a bare numeral; the unit °C is implied.

Which melting point value belongs to O=C(Nc1ccc(/C=C/C(=O)N2CCC=C(c3ccccc3)CC2)cn1)C1CCOC1 (centres unmarked) ? 152

Which melting point value belongs to O=C1Nc2ncc(/C=C/C(=O)N3CCC=C(c4ccccc4)CC3)cc2CN2CCNCC12 (centres unmarked) ? 206

Which melting point value belongs to `O=C(Nc1ccc(/C=C/C(=O)N2CCC=C(c3ccccc3)CC2)cn1)C1CCCC1` ? 141

Which melting point value belongs to `COc1ccc(F)cc1C1=CCCN(C(=O)/C=C/c2ccc(NC(=O)c3cncc(C)c3)nc2)CC1` ? 120

Which melting point value belongs to `COc1ccc(CN2CC(=O)Nc3ncc(/C=C/C(=O)N4CCC=C(c5ccccc5)CC4)cc3C2)cc1` ? 198

Which melting point value belongs to `O=C(Nc1ccc(/C=C/C(=O)N2CCC=C(c3ccccc3)CC2)cn1)c1cccnc1` ? 186

Which melting point value belongs to `CC(=O)Nc1ccc(/C=C/C(=O)N2CC=C(c3ccccc3)CCC2)cn1` ? 188

Which melting point value belongs to `COc1ccc(F)cc1C1=CCCN(C(=O)/C=C/c2cnc3c(c2)CNCC(=O)N3)CC1` ? 192

----------
Please provide measured melting point for the entries that follow.
Give a bare numeral; the unit °C is implied.

Which melting point value belongs to `O=C(Nc1ccc(/C=C/C(=O)N2CCC=C(c3ccccc3)CC2)cn1)c1ccccc1` ? 158.31

Which melting point value belongs to `O=C1CNCc2cc(/C=C/C(=O)N3CCC=C(c4ccccc4)CC3)cnc2N1` ? 203.18

Which melting point value belongs to `O=C(Nc1ccc(/C=C/C(=O)N2CCC=C(c3ccccc3)CC2)cn1)c1ccncc1` ? 98

Which melting point value belongs to `O=C1Nc2ncc(/C=C/C(=O)N3CCC=C(c4ccccc4)CC3)cc2CO1` ? 244.33

Which melting point value belongs to `Cn1cnc(C(=O)Nc2ccc(/C=C/C(=O)N3CCC=C(c4ccccc4)CC3)cn2)c1` ? 134

Which melting point value belongs to O=C1Nc2ncc(/C=C/C(=O)N3CCC=C(c4ccccc4)CC3)cc2CN2CCSCC12 (centres unmarked) [Compound K1] ? 224

Which melting point value belongs to `Cc1occc1C(=O)Nc1ccc(/C=C/C(=O)N2CCC=C(c3ccccc3)CC2)cn1` ? 192

Which melting point value belongs to `CN1CC(=O)Nc2ncc(/C=C/C(=O)N3CCC=C(c4ccccc4)CC3)cc2C1` ? 198.79

Which melting point value belongs to O=C1Nc2ncc(/C=C/C(=O)N3CC=C(c4ccccc4)CCC3)cc2CN2CCSCC12 (centres unmarked) ? 224

Which melting point value belongs to `COc1ccc(F)cc1C1=CCCN(C(=O)/C=C/c2cnc3c(c2)COC(=O)N3)CC1` ? 218.22

Which melting point value belongs to `O=C(Nc1ccc(/C=C/C(=O)N2CCC=C(c3ccccc3)CC2)cn1)c1ccoc1` ? 156

Which melting point value belongs to `Nc1ccc(/C=C/C(=O)N2CC=C(c3ccccc3)CCC2)cn1` ? 184

Which melting point value belongs to `CC(=O)Nc1ccc(/C=C/C(=O)N2CCC=C(c3ccccc3)CC2)cn1` ? 152

Which melting point value belongs to `COc1ccc(F)cc1C1=CCCN(C(=O)/C=C/c2ccc(NC(=O)c3cccnc3)nc2)CC1` ? 122

Which melting point value belongs to `CC(C)C(=O)Nc1ccc(/C=C/C(=O)N2CCC=C(c3ccccc3)CC2)cn1` ? 158

Which melting point value belongs to O=C1Nc2ncc(/C=C/C(=O)N3CC=C(c4ccccc4)CCC3)cc2CN2CCOCC12 (centres unmarked) ? 220

Which melting point value belongs to `O=C(Nc1ccc(/C=C/C(=O)N2CCC=C(c3ccccc3)CC2)cn1)c1c[nH]cn1` ? 120
